- Test system: streptozotocin-induced diabetic rats
- Assay method text: Sucrose-challenged streptozotocin-induced diabetic rats (STZ-S)
- Type: in vivo, rat
- Stated conditions: 100 mg/kg oral, 5 h
Marks after values point to notes of the source that are not given here.
Property measured: % Fall in blood glucose levels, STZ-S 5 h

Below are worked cases with known answers.
CC(C)(C)NCC(O)COc1ccc2c(=O)cc(-c3cc(O)cc(O)c3)oc2c1 (stereo not drawn) [Compound 48] :: NIL
COc1cc(-c2cc(=O)c3ccc(OCCCOc4ccc(C=C5SC(=O)NC5=O)cc4)cc3o2)cc(OC)c1OC [Compound 65] :: 16.1%
COc1cc(-c2cc(=O)c3ccc(OCC(O)CNC(C)C)cc3o2)cc(OC)c1OC (stereo not drawn) [Compound 41] :: 17.4%
CC(C)(C)NCC(O)COc1ccc2oc(-c3ccc(OCc4ccccc4)c(OCc4ccccc4)c3)cc(=O)c2c1 (stereo not drawn) [Compound 39] :: 14.9%
CC(C)NCC(O)COc1ccc2c(=O)cc(-c3cc(O)cc(O)c3)oc2c1 (stereo not drawn) [Compound 49] :: 26.9** %

Using the record for COc1cc(OC)cc(-c2cc(=O)c3ccc(OCCCOc4ccc(C=C5SC(=O)NC5=O)cc4)cc3o2)c1 [Compound 66] , report its % Fall in blood glucose levels, STZ-S 5 h.
18.9%

---

- Test system: triton WR-1339 induced hyperlipidemic rats
- Assay method text: Triton model, antidyslipidemic activity
- Type: in vivo, rat
- Stated conditions: Rattus norvegicus; 100 mg/kg oral, phospholipid, plasma after 18 h; read-out: % Fall in lipid levels (Triton model) PL
Property measured: inhibition in vivo at 100 mg/kg (%)
The reply should be a number in %, with the unit left off.

For orientation, consider the following solved cases.
CC(C)(C)NCC(O)COc1ccc2c(=O)cc(-c3cc(OCc4ccccc4)cc(OCc4ccccc4)c3)oc2c1 (centres unmarked) :: 18
COc1cc(OC)cc(-c2cc(=O)c3ccc(OCC(O)CNC(C)(C)C)cc3o2)c1 (centres unmarked) :: 19
CC(C)NCC(O)COc1ccc2c(=O)cc(-c3cc(OCc4ccccc4)cc(OCc4ccccc4)c3)oc2c1 (centres unmarked) :: 8

Field: inhibition in vivo at 100 mg/kg (triton WR-1339 induced hyperlipidemic rats). Entry: CC(C)(C)NCC(O)COc1ccc2c(=O)cc(-c3ccc(OCc4ccccc4)c(OCc4ccccc4)c3)oc2c1 (centres unmarked)
12

Please answer likewise for COc1cc(-c2cc(=O)c3ccc(OCC(O)CNC(C)C)cc3o2)cc(OC)c1OC (centres unmarked)
16

Request: CC(C)(C)NCC(O)COc1ccc2oc(-c3ccc(O)c(O)c3)cc(=O)c2c1 (centres unmarked)
23

What do you get for CC(C)(C)NCC(O)COc1ccc2c(=O)cc(-c3cc(O)cc(O)c3)oc2c1 (centres unmarked) ?
4

---

- Test system: triton WR-1339 induced hyperlipidemic rats
- Assay method text: Triton model, antidyslipidemic activity
- Format: in vivo, rat
- Stated conditions: Rattus norvegicus; 100 mg/kg oral, phospholipid, plasma after 18 h; read-out: % Fall in lipid levels (Triton model) PL
Property measured: inhibition in vivo at 100 mg/kg (%)
Entry rule: numbers only, all in %.

I am curious: what inhibition in vivo at 100 mg/kg value has been reported for CC(C)NCC(O)COc1ccc2c(=O)cc(-c3ccc(OCc4ccccc4)c(OCc4ccccc4)c3)oc2c1 (stereo not shown) ?
5

Next molecule up: CC(C)NCC(O)COc1ccc2c(=O)cc(-c3ccc(O)c(O)c3)oc2c1 (stereo not shown)
13

Follow-up item: COc1cc(OC)cc(-c2cc(=O)c3ccc(OCC(O)CNC(C)C)cc3o2)c1 (stereo not shown)
21

What about this molecule? COc1ccc(-c2cc(=O)c3ccc(OCC(O)CN4CCN(c5ccccc5)CC4)cc3o2)cc1OC (stereo not shown)
22
